# SYSTEM NAME: MBP-SUFU-SH (human, UniProt Q9UMX1 32-278; Q9UMX1 361-483)
# ASSAY OVERVIEW: MST
Where no end group is shown, it is not given here. The star is where a group is joined. 5FAM = O=C1OC2(c3ccc(O)cc3Oc3cc(O)ccc32)c2ccc(C(=O)*)cc21
PROPERTY MEASURED: Kd

Ask | Read the entry 5FAM-TSPGGSYGHLSIGTMSP [FAM-GLI1p] and write its reported Kd.
Reply | 4.22 µM

Measured values drawn from paper PMC3852661 for this set.
